Provide the reported half-life of each item.
Assay: Half life in simulated intestinal fluid at 37 degC at pH 7.4 by UV spectrophotometer analysis
Format: ADME
Lab book: enter the figure in min, no units written.

So what does the record say about half-life for Cc1cccc(Nc2ccccc2C(=O)NCC(=O)OCc2c(C(C)C)c(=O)n(-c3ccccc3)n2C)c1C ? 539

Same read-out for Cc1cccc(Nc2ccccc2C(=O)OCc2c(C(C)C)c(=O)n(-c3ccccc3)n2C)c1C ? 442
